Experiment: self-splicing fitness, log relative to wild type (ln ratio); higher = more splicing; Tetrahymena group I intron in knt gene, E. coli kanamycin selection, DiMSum; sequences stand for … in CUCUCU…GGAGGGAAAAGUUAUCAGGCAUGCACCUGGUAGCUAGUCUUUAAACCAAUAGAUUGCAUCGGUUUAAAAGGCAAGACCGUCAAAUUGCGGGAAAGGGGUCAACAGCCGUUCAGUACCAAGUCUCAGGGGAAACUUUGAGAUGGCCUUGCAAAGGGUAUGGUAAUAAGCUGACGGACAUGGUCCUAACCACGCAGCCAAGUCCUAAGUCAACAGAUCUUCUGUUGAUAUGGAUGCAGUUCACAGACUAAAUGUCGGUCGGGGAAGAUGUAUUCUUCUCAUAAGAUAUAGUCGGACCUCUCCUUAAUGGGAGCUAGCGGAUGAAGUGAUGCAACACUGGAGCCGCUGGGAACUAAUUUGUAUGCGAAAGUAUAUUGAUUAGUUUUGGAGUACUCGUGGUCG;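 also: selection with 25 µg/mL kanamycin versus none on LB agar overnight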
Settings: 30 °C
Measurement Type: self-splicing fitness (ln)

Sequence: GCCGAGCAAUAUUACGCGGG
Measurement Type: self-splicing fitness (ln)
Recorded Number: -4.07
//
Sequence: GAACAGCAAUAUUACGAUGG
Measurement Type: self-splicing fitness (ln)
Recorded Number: -3.04
//
Sequence: ACAGAGCAAUAUUACGUAAU
Measurement Type: self-splicing fitness (ln)
Recorded Number: -3.43
//
Sequence: UCCAAGCAAUAUUACGCGAC
Measurement Type: self-splicing fitness (ln)
Recorded Number: -2.44
//
Sequence: GAUCAGCAAUAUUACGUUGC
Measurement Type: self-splicing fitness (ln)
Recorded Number: -2.84
//
Sequence: AACGAGCAAUAUUACGGAGA
Measurement Type: self-splicing fitness (ln)
Recorded Number: -3.61
//
Sequence: CUCGAGCAAUAUUACGCGUG
Measurement Type: self-splicing fitness (ln)
Recorded Number: -3.43
//
Sequence: GAAUAGCAAUAUUACGUGGG
Measurement Type: self-splicing fitness (ln)
Recorded Number: -3.86
//
Sequence: UUCGAGCAAUAUUACGUUGU
Measurement Type: self-splicing fitness (ln)
Recorded Number: -2.49
//
Sequence: GGCAAGCAAUAUUACGAACG
Measurement Type: self-splicing fitness (ln)
Recorded Number: -0.449
//
Sequence: AUACAGCAAUAUUACGUGAC
Measurement Type: self-splicing fitness (ln)
Recorded Number: -1.57
//
Sequence: UGGGAGCAAUAUUACGCCAU
Measurement Type: self-splicing fitness (ln)
Recorded Number: -3.45
//
Sequence: UGACAGCAAUAUUACGAUGU
Measurement Type: self-splicing fitness (ln)
Recorded Number: -4.14
//
Sequence: AUACAGCAAUAUUACGUCCC
Measurement Type: self-splicing fitness (ln)
Recorded Number: -0.874
//
Sequence: CUGCAGCAAUAUUACGGUCG
Measurement Type: self-splicing fitness (ln)
Recorded Number: -0.487
//
Sequence: AGUCAGCAAUAUUACGCCUC
Measurement Type: self-splicing fitness (ln)
Recorded Number: -2.68
//
Sequence: GCAUAGCAAUAUUACGUACC
Measurement Type: self-splicing fitness (ln)
Recorded Number: -0.706
//
Sequence: AUUAAGCAAUAUUACGAAAG
Measurement Type: self-splicing fitness (ln)
Recorded Number: -1.89
//
Sequence: GGAAAGCAAUAUUACGCCAA
Measurement Type: self-splicing fitness (ln)
Recorded Number: -2.36

###

Assay: self-splicing fitness, log relative to wild type (ln ratio); higher = more splicing; Tetrahymena group I intron in knt gene, E. coli kanamycin selection, DiMSum; sequences stand for … in CUCUCU…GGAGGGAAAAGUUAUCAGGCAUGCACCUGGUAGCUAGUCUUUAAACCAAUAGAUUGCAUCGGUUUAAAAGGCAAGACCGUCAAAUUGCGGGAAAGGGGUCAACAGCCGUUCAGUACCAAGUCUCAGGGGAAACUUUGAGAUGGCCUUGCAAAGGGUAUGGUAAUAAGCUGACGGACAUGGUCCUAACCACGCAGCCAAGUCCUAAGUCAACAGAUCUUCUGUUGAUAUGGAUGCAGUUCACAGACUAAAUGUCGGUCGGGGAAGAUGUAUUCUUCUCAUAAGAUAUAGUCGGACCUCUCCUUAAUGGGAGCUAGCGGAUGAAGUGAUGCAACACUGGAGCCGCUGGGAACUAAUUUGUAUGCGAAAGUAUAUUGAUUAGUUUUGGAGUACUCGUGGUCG
Details: 37 °C
Threshold rule: self-splicing fitness (ln) greater than or equal to -1 is yes (1); below that, no (0).

Sequence: UCACAGCAAUAUUACGAGGA
Label: no (0)

Sequence: AACGAGCAAUAUUACGGAGA
Label: no (0)

Sequence: GUGUAGCAAUAUUACGCGGG
Label: no (0)

Sequence: UUUCAGCAAUAUUACGCGAU
Label: no (0)

Sequence: CUCCAGCAAUAUUACGGCUG
Label: no (0)

Sequence: UAAUAGCAAUAUUACGGCCC
Label: yes (1)

Sequence: ACCCAGCAAUAUUACGACAA
Label: no (0)

Sequence: CCGGAGCAAUAUUACGCACG
Label: yes (1)

Sequence: UCGGAGCAAUAUUACGUUGC
Label: no (0)

Sequence: GCACAGCAAUAUUACGCAUA
Label: yes (1)

Sequence: AAACAGCAAUAUUACGAUAA
Label: yes (1)

Sequence: ACUCAGCAAUAUUACGCUUG
Label: yes (1)

###

Assay: self-splicing fitness, log relative to wild type (ln ratio); higher = more splicing; Tetrahymena group I intron in knt gene, E. coli kanamycin selection, DiMSum; sequences stand for … in CUCUCU…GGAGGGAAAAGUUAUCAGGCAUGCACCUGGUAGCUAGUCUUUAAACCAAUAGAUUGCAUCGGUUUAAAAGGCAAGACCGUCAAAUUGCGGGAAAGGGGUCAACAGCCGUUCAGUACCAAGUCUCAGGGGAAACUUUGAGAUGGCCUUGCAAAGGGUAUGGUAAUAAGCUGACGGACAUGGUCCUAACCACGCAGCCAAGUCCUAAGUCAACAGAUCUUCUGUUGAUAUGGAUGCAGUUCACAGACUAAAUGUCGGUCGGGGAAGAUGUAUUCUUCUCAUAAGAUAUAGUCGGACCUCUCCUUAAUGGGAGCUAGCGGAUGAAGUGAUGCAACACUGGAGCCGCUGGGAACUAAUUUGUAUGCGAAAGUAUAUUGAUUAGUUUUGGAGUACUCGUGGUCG
Settings: 37 °C
Threshold rule: self-splicing fitness (ln) greater than or equal to -2 is yes; below that, no.

Sequence: GUAGAGCAAUAUUACGCAAU
Label: yes

Sequence: UUCCAGCAAUAUUACGGAUC
Label: yes

Sequence: CUUAAGCAAUAUUACGGUCU
Label: no

Sequence: UAGCAGCAAUAUUACGGGGC
Label: no

Sequence: GGUGAGCAAUAUUACGAUGC
Label: yes

Sequence: ACGAAGCAAUAUUACGCCAU
Label: no

Sequence: GAAUAGCAAUAUUACGUUGA
Label: yes

Sequence: GGAUAGCAAUAUUACGUUGA
Label: yes

Sequence: CGGGAGCAAUAUUACGGAGU
Label: no

Sequence: GUUAAGCAAUAUUACGAUAC
Label: yes

Sequence: GGCUAGCAAUAUUACGUCCA
Label: yes

Sequence: UGUUAGCAAUAUUACGCGCG
Label: yes

Sequence: CUUGAGCAAUAUUACGUUCG
Label: yes

Sequence: GGCCAGCAAUAUUACGGAUA
Label: yes

Sequence: UUCCAGCAAUAUUACGAGGC
Label: no

Sequence: UGAGAGCAAUAUUACGCUAA
Label: no

Sequence: ACGCAGCAAUAUUACGACUA
Label: yes

Sequence: AUAAAGCAAUAUUACGAUGG
Label: yes

Sequence: AAGUAGCAAUAUUACGGGCC
Label: yes

###

Recorded self-splicing fitness (ln), one value per entry.
Assay: self-splicing fitness, log relative to wild type (ln ratio); higher = more splicing; Tetrahymena group I intron in knt gene, E. coli kanamycin selection, DiMSum; sequences stand for … in CUCUCU…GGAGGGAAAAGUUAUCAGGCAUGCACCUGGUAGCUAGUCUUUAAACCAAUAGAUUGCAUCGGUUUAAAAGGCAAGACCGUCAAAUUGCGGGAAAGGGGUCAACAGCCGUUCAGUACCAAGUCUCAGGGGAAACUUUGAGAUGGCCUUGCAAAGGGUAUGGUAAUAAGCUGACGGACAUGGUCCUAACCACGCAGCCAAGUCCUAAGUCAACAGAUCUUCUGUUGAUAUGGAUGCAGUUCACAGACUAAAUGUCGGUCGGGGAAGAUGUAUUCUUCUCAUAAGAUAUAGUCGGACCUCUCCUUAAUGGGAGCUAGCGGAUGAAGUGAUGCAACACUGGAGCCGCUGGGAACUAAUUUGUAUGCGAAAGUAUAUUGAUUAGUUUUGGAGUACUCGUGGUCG
Conditions: 37 °C

Sequence: UCGCAGCAAUAUUACGCACC
self-splicing fitness (ln): -1.6
//
Sequence: GGAAAGCAAUAUUACGACUA
self-splicing fitness (ln): -0.129
//
Sequence: AAACAGCAAUAUUACGGUCA
self-splicing fitness (ln): 0.186
//
Sequence: GUCGAGCAAUAUUACGCUUU
self-splicing fitness (ln): -1.92
//
Sequence: GCUCAGCAAUAUUACGGGGA
self-splicing fitness (ln): 0.325
//
Sequence: GUGCAGCAAUAUUACGAGAA
self-splicing fitness (ln): -2.25
//
Sequence: GGUCAGCAAUAUUACGCACU
self-splicing fitness (ln): -0.976
//
Sequence: GGUAAGCAAUAUUACGCCGU
self-splicing fitness (ln): -0.738
//
Sequence: CAACAGCAAUAUUACGUAAC
self-splicing fitness (ln): -2.41
//
Sequence: UAGCAGCAAUAUUACGCUGA
self-splicing fitness (ln): -1.71
//
Sequence: ACAGAGCAAUAUUACGCCGU
self-splicing fitness (ln): -0.807
